Listed sequences paired with reported log2 fold change of degron read counts
# Target Or Test System: T1, CRBN, Q96SW2;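 further: pooled lentiviral library of zinc finger degron-EGFP fusions in mCherry-positive Jurkat cells, FACS-sorted after compound exposure, with degron abundance counted by next-generation sequencing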
# T1 chain: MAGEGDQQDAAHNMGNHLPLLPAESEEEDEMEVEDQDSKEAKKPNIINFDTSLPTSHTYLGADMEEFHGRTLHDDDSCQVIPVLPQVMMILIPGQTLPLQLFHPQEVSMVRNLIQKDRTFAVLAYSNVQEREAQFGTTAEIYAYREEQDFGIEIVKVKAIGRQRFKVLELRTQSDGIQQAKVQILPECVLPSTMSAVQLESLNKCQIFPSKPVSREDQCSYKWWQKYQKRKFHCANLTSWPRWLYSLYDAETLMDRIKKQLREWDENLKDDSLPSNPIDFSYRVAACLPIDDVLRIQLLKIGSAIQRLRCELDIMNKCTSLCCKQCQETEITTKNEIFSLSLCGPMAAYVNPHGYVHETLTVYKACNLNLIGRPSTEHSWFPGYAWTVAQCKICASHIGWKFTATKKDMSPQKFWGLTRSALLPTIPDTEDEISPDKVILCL
# Test Method Notes: log2 fold change of degron read counts, EGFP-low vs EGFP+ sorted cells (limma voom), compound-induced degradation; higher = more compound-induced degradation of the degron-EGFP fusion; degrons are variants of IKZF1/3 zinc finger 2; compound dose not given here
# Condition Label: Jurkat; 18 h; compound: compound 19 (5-tert-butyl-thalidomide)
Whole data set: some 8,300 sequences, median “log2 fold change of degron read counts, EGFP-low vs EGFP+ sorted cells (limma voom), compound-induced degradation” near -1.1, cut for the highest 2% near 3.2. What follows is part of a selection rich in the highest values, with near analogues and random picks from the rest.
Attribute Measured: log2 fold change of degron read counts

[[record]]
biosequence = "FSCEICGAYFTQKGNLLRHIKL [46F_47S_49E_50I_52G_53A_54Y_55F_67L_, Q9UKT9]"
val = 2.46

[[record]]
biosequence = "FVCPICGAYFTQKGNLLRHIKL [46F_47V_49P_50I_52G_53A_54Y_55F_67L_, Q9UKT9]"
val = 0.319

[[record]]
biosequence = "FACDVCGAQFTQKGNLLRHIKL [46F_47A_49D_50V_52G_53A_54Q_55F_67L_, Q9UKT9]"
val = 1.75

[[record]]
biosequence = "LSCPICGFICTQKGNLLRHIKL [46L_47S_49P_50I_52G_53F_54I_55C_67L_, Q9UKT9]"
val = 1.06

[[record]]
biosequence = "FTCNQCGHTFTQKGNLLRHIKL [46F_47T_49N_50Q_52G_53H_54T_55F_67L_, Q9UKT9]"
val = -3.38

[[record]]
biosequence = "FGCPICGHEFTQKGNLLRHIKL [46F_47G_49P_50I_52G_53H_54E_55F_67L_, Q9UKT9]"
val = -1.93

[[record]]
biosequence = "FTCPICGAYFTQKGNLLRHIKL [46F_47T_49P_50I_52G_53A_54Y_55F_67L_, Q9UKT9]"
val = 1

[[record]]
biosequence = "LACEICGFLCTQKGNLLRHIKL [46L_47A_49E_50I_52G_53F_54L_55C_67L_, Q9UKT9]"
val = 0.343

[[record]]
biosequence = "LQCPICGFICTQKGNLLRHIKL [46L_47Q_49P_50I_52G_53F_54I_55C_67L_, Q9UKT9]"
val = -0.0184

[[record]]
biosequence = "LQCPICGFRCTQKGNLLRHIKL [46L_47Q_49P_50I_52G_53F_54R_55C_67L_, Q9UKT9]"
val = 0.322

[[record]]
biosequence = "FNCPICGAYFTQKGNLLRHIKL [46F_47N_49P_50I_52G_53A_54Y_55F_67L_, Q9UKT9]"
val = 2.2

[[record]]
biosequence = "FQCPICGAYFTQKGNLLRHIKL [46F_47Q_49P_50I_52G_53A_54Y_55F_67L_, Q9UKT9]"
val = -1.06

[[record]]
biosequence = "FSCPICGAYFTQKGNLLRHIKL [46F_47S_49P_50I_52G_53A_54Y_55F_67L_, Q9UKT9]"
val = 2.23

[[record]]
biosequence = "FICPICGAYFTQKGNLLRHIKL [46F_47I_49P_50I_52G_53A_54Y_55F_67L_, Q9UKT9]"
val = -0.481

[[record]]
biosequence = "FECPICGRFFTQKGNLLRHIKL [46F_47E_49P_50I_52G_53R_54F_55F_67L_, Q9UKT9]"
val = -1.85

